meta.source: ChEMBL document CHEMBL1154112

target: D(2) dopamine receptor (Homo sapiens); assay: Binding affinity to human cloned dopamine D2-long expressed in CHO cells; type: cell-based
Sequence (P14416 whole entry): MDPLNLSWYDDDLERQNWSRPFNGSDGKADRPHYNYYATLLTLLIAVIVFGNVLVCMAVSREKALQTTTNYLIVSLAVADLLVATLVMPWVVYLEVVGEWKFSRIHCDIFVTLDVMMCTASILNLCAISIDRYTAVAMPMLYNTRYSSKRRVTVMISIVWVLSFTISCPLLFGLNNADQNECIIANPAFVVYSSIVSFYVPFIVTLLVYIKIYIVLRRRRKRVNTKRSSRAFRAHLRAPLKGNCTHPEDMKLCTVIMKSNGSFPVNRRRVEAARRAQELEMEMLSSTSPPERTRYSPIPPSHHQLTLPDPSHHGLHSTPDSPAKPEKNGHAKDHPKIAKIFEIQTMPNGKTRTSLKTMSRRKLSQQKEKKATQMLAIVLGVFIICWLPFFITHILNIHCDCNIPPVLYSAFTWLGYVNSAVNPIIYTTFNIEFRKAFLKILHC
measurement label: log10 Ki (log10 of the value in nM)
Response schema: value (number) is log10 of Ki in units of nM.

// solved cases for log10 Ki follow
# compound structure, value measured
data = [
    ("COc1ccccc1N1CCN(CCNC(=O)c2cn(-c3ccc([N+](=O)[O-])cc3)nn2)CC1", 2.88),
    ("COc1ccc(-n2cc(CCCC(=O)NCCCCN3CCN(c4cccc(Cl)c4Cl)CC3)nn2)cc1", 2.08),
    ("O=C(NCCCCN1CCN(c2cccc(Cl)c2Cl)CC1)c1cn(-c2ccc([N+](=O)[O-])cc2)nn1", 1.69),
    ("COc1ccc(-n2cc(C(=O)NCCCCN3CCN(c4cccc(Cl)c4Cl)CC3)nn2)cc1", 1.64),
]

Proceed to the following item.
Data request: Report log10 Ki for O=C(CCCc1cn(-c2ccc([N+](=O)[O-])cc2)nn1)NCCCCN1CCN(c2cccc(Cl)c2Cl)CC1 please.
Data returned: 1.92

* * *

species: Sus scrofa; assay: Displacement of [3H]prazosin from pig alpha-1 adrenergic receptor; set-up: concentration or dose not given beside the values
measurement label: Activity (%)
Answers are plain numbers, in %.

# compound structure, measurement label, value measured
records = [
    ("COc1ccc(-n2cc(C(=O)NCCN3CCN(c4cccc(Cl)c4Cl)CC3)nn2)cc1", "Activity", 39),
    ("O=C(NCCCCN1CCN(c2cccc(Cl)c2Cl)CC1)c1cn(-c2ccc([N+](=O)[O-])cc2)nn1", "Activity", 48),
    ("O=C(CCCc1cn(-c2ccc([N+](=O)[O-])cc2)nn1)NCCCCN1CCN(c2ccccc2Cl)CC1", "Activity", 64),
    ("COc1ccc(-n2cc(CCCC(=O)NCCCCN3CCN(c4ccccc4OC)CC3)nn2)cc1", "Activity", 72),
    ("COc1ccccc1N1CCN(CCNC(=O)c2cn(-c3ccc([N+](=O)[O-])cc3)nn2)CC1", "Activity", 80),
    ("COc1ccc(-n2cc(CCCC(=O)NCCCCN3CCN(c4ccccc4Cl)CC3)nn2)cc1", "Activity", 58),
    ("COc1ccccc1N1CCN(CCCCNC(=O)CCCc2cn(-c3ccc([N+](=O)[O-])cc3)nn2)CC1", "Activity", 83),
    ("COc1ccccc1N1CCN(CCNC(=O)CCCc2cn(-c3ccc([N+](=O)[O-])cc3)nn2)CC1", "Activity", 43),
]

Go through the items and report each one's Activity.
1. COc1ccc(-n2cc(C(=O)NCCN3CCN(c4ccccc4OC)CC3)nn2)cc1
2. COc1ccc(-n2cc(C(=O)NCCCCN3CCN(c4ccccc4Cl)CC3)nn2)cc1
3. COc1ccc(-n2cc(C(=O)NCCCCN3CCN(c4ccccc4OC)CC3)nn2)cc1
4. O=C(NCCCCN1CCN(c2ccccc2Cl)CC1)c1cn(-c2ccc([N+](=O)[O-])cc2)nn1
5. O=C(NCCN1CCN(c2cccc(Cl)c2Cl)CC1)c1cn(-c2ccc([N+](=O)[O-])cc2)nn1
6. COc1ccccc1N1CCN(CCCCNC(=O)c2cn(-c3ccc([N+](=O)[O-])cc3)nn2)CC1
7. COc1ccc(-n2cc(CCCC(=O)NCCN3CCN(c4ccccc4OC)CC3)nn2)cc1

Data returned:
56
55
64
61
47
73
56
